Here, each record is paired with measured pIC50 data.
molecular target: Mdm2/p53 binding (GST-Mdm2 / His-p53) (Homo sapiens, UniProt Q00987, L33E); construct: Mdm2 partial protein having Mdm2 amino acids at positions 25 to 108; test: Mdm2/p53 binding assay (HTRF, His-p53 and GST-Mdm2); conditions: His-p53 (aa 1-132) and GST-Mdm2 (aa 25-108, L33E) 6.25 nM each; 25°C, 1 hour; values given as ranges
Sequence (Q00987 25-108 L33E): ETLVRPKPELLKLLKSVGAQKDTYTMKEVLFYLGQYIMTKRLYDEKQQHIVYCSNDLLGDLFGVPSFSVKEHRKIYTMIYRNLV
pIC50: −log10 of the molar value.

The cases that follow already have their pIC50 on record.
molecule	pIC50
CC1(C)CCC2(CC1)N[C@@H](C(=O)N[C@@H]1CC[C@@H](c3n[nH]c(=O)o3)OC1)[C@H](c1cccc(Cl)c1F)[C@]21C(=O)Nc2nc(Cl)ccc21 [Example 55]	7.30 to 9.00
CC1(C)CCC2(CC1)N[C@@H](C(=O)N[C@H]1CC[C@H](c3noc(=O)[nH]3)CC1)[C@H](c1cccc(Cl)c1F)[C@]21C(=O)Nc2nc(Cl)ccc21 (relative stereo) [Example 49]	7.30 to 9.00

Fill in: pIC50 of CC1(C)CCC2(CC1)N[C@@H](C(=O)N[C@H]1CC[C@H](c3noc(=O)[nH]3)CC1)[C@H](c1cccc(Cl)c1F)[C@]21C(=O)Nc2cc(Cl)ccc21 [Example 48] is ___
7.30 to 9.00

Can you look up the measured pIC50 of O=C(NCCF)[C@@H]1CC[C@@H](NC(=O)[C@@H]2NC3(CC(CF)(CF)C3)[C@@]3(C(=O)Nc4cc(Cl)ccc43)[C@H]2c2cccc(Cl)c2F)CO1 [Example 138] for me?
7.00 to 7.30

Reported pIC50, molecule CC(C)NC(=O)[C@@H]1CC[C@@H](NC(=O)[C@@H]2NC3(CCC(C)(C)CC3)[C@@]3(C(=O)Nc4cc(Cl)ccc43)[C@H]2c2ccnc(Cl)c2F)CO1 [Example 96] : ____
7.00 to 7.30

Could you share which pIC50 value was measured for CN(C)C(=O)[C@@H]1CC[C@@H](NC(=O)[C@@H]2NC3(CCC(C)(C)CC3)[C@@]3(C(=O)Nc4cc(Cl)ccc43)[C@H]2c2ccnc(Cl)n2)CO1 [Example 140] ?
7.00 to 7.30

Would you kindly share the measured pIC50 for CC1(C)CCC2(CC1)N[C@@H](C(=O)N[C@@H]1CC[C@@H](C(=O)N3CCC3)OC1)[C@H](c1ccnc(Cl)c1F)[C@]21C(=O)Nc2cc(Cl)ccc21 [Example 106] ?
7.30 to 9.00

Value lookup for pIC50; key = CC1(C)CCC2(CC1)N[C@@H](C(=O)N[C@@H]1CC[C@@H](CS(C)(=O)=O)OC1)[C@H](c1ccnc(Cl)c1F)[C@]21C(=O)Nc2cc(Cl)ccc21 [Example 98]
7.00 to 7.30

Consider the molecule shown here: CC1(C)CCC2(CC1)N[C@@H](C(=O)N[C@@H]1CC[C@@H](C(=O)NC3CC3)OC1)[C@H](c1ccnc(Cl)c1F)[C@]21C(=O)Nc2cc(Cl)ccc21 [Example 97] What is its recorded pIC50?
7.30 to 9.00

Need pIC50, item CC1(C)CCC2(CC1)N[C@@H](C(=O)N[C@H]1CO[C@H](CO)[C@@H](O)C1)[C@H](c1ccnc(Cl)c1F)[C@]21C(=O)Nc2cc(Cl)ccc21 [Example 29]
7.30 to 9.00

Sample CC1(C)CCC2(CC1)N[C@@H](C(=O)N[C@H]1C[C@H](CO)C1)[C@H](c1ccnc(Cl)c1F)[C@]21C(=O)Nc2cc(Cl)ccc21 [Example 119] — what was its pIC50?
7.30 to 9.00

This collection of values is drawn from patent US12545685B2.
